Entry source: patent US20080161232A1

# Assay system: human C5aR(CD88) (Homo sapiens, UniProt P21730)
# Construct: expressed in transfected cells; host or cells: rat basophilic leukemia cells (RBL)
# Sequence (P21730 1-350): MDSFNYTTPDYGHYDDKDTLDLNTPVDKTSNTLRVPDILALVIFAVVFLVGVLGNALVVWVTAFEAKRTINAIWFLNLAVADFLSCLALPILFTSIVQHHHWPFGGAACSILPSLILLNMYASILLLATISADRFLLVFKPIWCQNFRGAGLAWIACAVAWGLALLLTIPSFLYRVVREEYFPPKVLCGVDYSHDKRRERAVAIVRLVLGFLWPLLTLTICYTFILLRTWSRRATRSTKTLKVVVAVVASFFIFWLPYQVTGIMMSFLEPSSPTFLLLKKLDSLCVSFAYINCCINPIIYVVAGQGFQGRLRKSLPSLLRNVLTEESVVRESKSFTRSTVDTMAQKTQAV
# Assay info: Determination of the IC50 value in an enzyme release assay (functional assay, antagonistic activity)
# Type: cell-based
# Condition parameters: antagonistic activity; IC50 group in enzyme release assay, RBL cells expressing human C5aR(CD88); read-out: activity (group)
Positions of bridges follow the written chain, without caps; N, C: chain ends. Non-standard residues stand in square brackets, D forms with d. Residues, ends and D or L forms follow the SMILES beside them. *: point of attachment. Phe(4-F) = N[C@@H](Cc1ccc(F)cc1)C(=O)O; 1Nal = N[C@@H](Cc1cccc2ccccc12)C(=O)O; Bta = N[C@@H](Cc1csc2ccccc12)C(=O)O; Hydrocinnamoyl = O=C(CCc1ccccc1)*; d(hLeu) = CC(C)CC[C@@H](N)C(=O)O; dCha = N[C@H](CC1CCCCC1)C(=O)O; dNle = CCCC[C@@H](N)C(=O)O; Nle = CCCC[C@H](N)C(=O)O; Orn = NCCC[C@H](N)C(=O)O
Item-by-item account of IC50

Record excerpt, results attached:
Compound	Assay metric	Obs value
CC(=O)NCCC[C@H](NC(=O)[C@H](Cc1ccccc1)NC(C)=O)C(=O)N1CCC[C@H]1C(=O)N[C@H](CC1CCCCC1)C(=O)N[C@@H](Cc1c[nH]c2ccccc12)C(=O)N[C@@H](Cc1ccccc1)C(N)=O [Compound 82, Ac-Phe-Orn(Ac)-Pro-cha-Trp-Phe-NH2] (Ac-F[Orn](Ac)P[dCha]WF-NH2)	IC50	50 to 200 nM
CC(=O)N[C@@H](Cc1ccccc1)C(=O)N[C@@H](CCCN)C(=O)N1CCC[C@H]1C(=O)N[C@H](CCC(C)C)C(=O)N[C@@H](Cc1csc2ccccc12)C(=O)N[C@@H](Cc1ccccc1)C(N)=O [Compound 280, Ac-Phe-Orn-Pro-hle-Bta-Phe-NH2] (Ac-F[Orn]P[d(hLeu)][Bta]F-NH2)	IC50	20 to 50 nM
CCCC[C@@H]1NC(=O)[C@H](Cc2ccc(F)cc2)NC(=O)[C@@H](CCC(C)C)NC(=O)[C@@H]2CCCN2C(=O)[C@@H](NC(=O)[C@@H](N)Cc2ccccc2)CCCNC1=O [Compound 379, H-Phe-[Orn-Pro-hle-Pff-Nle]] (H-F[Orn]P[d(hLeu)][Phe(4-F)][Nle]; lactam 2-C)	IC50	50 to 200 nM

Quick note, IC50 for CC(=O)N[C@@H](Cc1ccccc1)C(=O)N[C@@H](CCCN)C(=O)N1CCC[C@H]1C(=O)N[C@H](CCC(C)C)C(=O)N[C@@H](Cc1cccc2ccccc12)C(=O)N[C@@H](Cc1ccccc1)C(N)=O [Compound 268, Ac-Phe-Orn-Pro-hle-1Ni-Phe-NH2] (Ac-F[Orn]P[d(hLeu)][1Nal]F-NH2) landed at 20 to 50 nM

Quick note, IC50 for NCCC[C@H](NC(=O)CCc1ccccc1)C(=O)N1CCC[C@H]1C(=O)N[C@H](CC1CCCCC1)C(=O)N[C@@H](Cc1csc2ccccc12)C(=O)N[C@@H](Cc1ccccc1)C(N)=O [Compound 324, Faz-Orn-Pro-cha-Bta-Phe-NH2] (Hydrocinnamoyl-[Orn]P[dCha][Bta]F-NH2) landed at 50 to 200 nM

Quick note, IC50 for CCCC[C@H]1NC(=O)[C@H](Cc2c[nH]c3ccccc23)NC(=O)[C@@H](CC2CCCCC2)NC(=O)[C@@H]2CCCN2C(=O)[C@@H](NC(=O)[C@H](Cc2ccccc2)NC(C)=O)CCCNC1=O [Compound 194, Ac-Phe-[Orn-Pro-cha-Trp-nle]] (Ac-F[Orn]P[dCha]W[dNle]; lactam 2-C) landed at 50 to 200 nM

Quick note, IC50 for CC(=O)N[C@@H](Cc1ccccc1)C(=O)N[C@@H](CCCN)C(=O)N[C@@H](C)C(=O)N[C@H](CC1CCCCC1)C(=O)N[C@@H](Cc1c[nH]c2ccccc12)C(=O)N[C@@H](Cc1ccccc1)C(N)=O [Compound 79, Ac-Phe-Orn-Ala-cha-Trp-Phe-NH2] (Ac-F[Orn]A[dCha]WF-NH2) landed at 50 to 200 nM
